Experiment: viability loss with induced miR-34 in A549 – imaging, A549 dox-inducible miR-34, nuclei and caspase counts, primary screen (AID 1347080); further: test concentration not given here
Conditions: A549 miR-34 inducible, Hoechst nuclei count, 48 h; measured here: total cells with miR-34 induction; stronger effect = lower value
Measured cell count of individual entries
Please give the numeric answer without any surrounding text.

Past entries and their recorded results:
Compound	Assay Result
CN1CC(=O)N/C1=N\C(=O)Nc1cccc(Cl)c1	10900
N#C/C(=C/c1ccc(O)c(O)c1)C(=O)OC/C=C/c1ccccc1	4460
CC[C@]1(O)CC2CN(CCc3c([nH]c4ccccc34)[C@@](C(=O)OC)(c3cc4c(cc3OC)N(C)C3[C@@](O)(C(N)=O)C(O)[C@]5(CC)C=CCN6CC[C@]43C65)C2)C1 (some centres undefined)	1070

With those in mind, consider the next compound.
Looking up Cc1cc(C(C)Nc2ccccc2C(=O)O)c2nc(N3CCOCC3)cc(=O)n2c1 (centres undefined) , I found its cell count recorded as 5770
